Recorded values, source PubChem BioAssay.

procedure_text: inhibitors of mutant huntingtin aggregation, primary screen, imaging, exon1htt(103Q)mCFP cells, high-content imaging (AID 483);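 also: compound exposure lasted 3 days before fixation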
conditions_used: exon1htt(103Q)mCFP cell line, aggregate imaging, at 2 µM; hits give high values
Field: inhibition of aggregation. Provide a value for each of the compounds that follow.
One number for each entry, in %.

Solved cases below.
Prompt line: In one line, give reported inhibition of aggregation of the entry CC(=O)OC(C)C[N+](C)(C)C (stereo not given) .
Response line: -10.4

Prompt line: In one line, give reported inhibition of aggregation of the entry CCOC(=O)CSC1=C(C#N)C(=O)NC(c2ccc(OC)c(OC)c2)S1 (stereo not given) .
Response line: 12.1

Prompt line: In one line, give reported inhibition of aggregation of the entry Cc1cc(C)n(S(=O)(=O)Cc2ccccc2)n1 .
Response line: -5.2

Prompt line: In one line, give reported inhibition of aggregation of the entry CCN(CC)CCCC1(CN)OCCc2ccccc21 (stereo not given) .
Response line: -31.3

Next:
Prompt line: In one line, give reported inhibition of aggregation of the entry CN1CCc2c(sc3c2c(=O)n(-c2ccccc2)c2nnc(SCc4ccccc4)n32)C1 .
Response line: 8.3
